From: patent US8834843B2

# METHOD_NOTES: Biodistribution in sham-operated rats with and without excess cold compound
# Type: in vivo
# CONDITION_NOTES: male, Sprague Dawley, rat, kidneys, iv, total radioactivity, 15 days post-op, 1 hour post-injection, +10K-fold excess cold Compound 8, read-out: Activity in Kidneys, Mean
Numbered stars: 1 amine (or outer) side, 2 acyl side, 3 side chain; on linkers, the order of the positions; unused ones are H or OH. Bridge positions count the residues as written; N and C are the ends. Side chains are listed from the residue outwards. Peptide text beside a SMILES is read from it. * marks the point of attachment. X1 = C/C(=N\O)C(C)(C)NCCC(CCNC(C)(C)/C(C)=N/O)CCN*; Glutaryl = O=C(CCCC(=O)[*:2])[*:1]; X2 = NC(=O)COCC(=O)NCCOCCOCCOCCN*
MEASURED_METRIC: tissue uptake dose at 1 h (%ID)
Return type: number; implicit unit %ID.

Answer with the recorded tissue uptake dose at 1 h for the compound listed here: C/C(=N\O)C(C)(C)NCCC(CCNC(=O)CCCC(=O)NCCCC[C@@H]1NC(=O)CSC[C@@H](C(=O)NCCOCCOCCOCCNC(=O)COCC(N)=O)NC(=O)[C@H](Cc2ccccc2)NC(=O)[C@@H]2CSSC[C@H](NC1=O)C(=O)N[C@@H](CCCNC(=N)N)C(=O)NCC(=O)N[C@@H](CC(=O)O)C(=O)N2)CCNC(C)(C)/C(C)=N/O (stereo partly shown) [Compound 8] ({CH2CO}-K([Glutaryl-X1])CRGDCFC-X2; disulfide 2-6; thioether N-8)
3.65

---

# METHOD_NOTES: Biodistribution in BDL rats with and without excess cold compound
# Assay type: in vivo
# CONDITION_NOTES: male, Sprague Dawley, rat, liver, iv, total radioactivity, BDL rats, 15 days post-op, 1 hour post-injection, no excess; read-out: Activity in Liver, Mean
Numbered stars: 1 amine (or outer) side, 2 acyl side, 3 side chain; on linkers, the order of the positions; unused ones are H or OH. Bridge positions count the residues as written; N and C are the ends. Side chains are listed from the residue outwards. Peptide text beside a SMILES is read from it. * marks the point of attachment. X1 = C/C(=N\O)C(C)(C)NCCC(CCNC(C)(C)/C(C)=N/O)CCN*; Glutaryl = O=C(CCCC(=O)[*:2])[*:1]; X2 = NC(=O)COCC(=O)NCCOCCOCCOCCN*
MEASURED_METRIC: tissue uptake dose at 1 h
Field: value (include unit after the number)

Answer with the recorded tissue uptake dose at 1 h for the compound listed here: C/C(=N\O)C(C)(C)NCCC(CCNC(=O)CCCC(=O)NCCCC[C@@H]1NC(=O)CSC[C@@H](C(=O)NCCOCCOCCOCCNC(=O)COCC(N)=O)NC(=O)[C@H](Cc2ccccc2)NC(=O)[C@@H]2CSSC[C@H](NC1=O)C(=O)N[C@@H](CCCNC(=N)N)C(=O)NCC(=O)N[C@@H](CC(=O)O)C(=O)N2)CCNC(C)(C)/C(C)=N/O (stereo partly shown) [Compound 8] ({CH2CO}-K([Glutaryl-X1])CRGDCFC-X2; disulfide 2-6; thioether N-8)
12.7 %ID

---

# METHOD_NOTES: Biodistribution in BDL rats with and without excess cold compound
# Type: in vivo
# CONDITION_NOTES: male, Sprague Dawley, rat, skin, iv, total radioactivity, BDL rats, 15 days post-op, 1 hour post-injection, no excess; read-out: Activity in Skin, Mean
Numbered stars: 1 amine (or outer) side, 2 acyl side, 3 side chain; on linkers, the order of the positions; unused ones are H or OH. Bridge positions count the residues as written; N and C are the ends. Side chains are listed from the residue outwards. Peptide text beside a SMILES is read from it. * marks the point of attachment. X1 = C/C(=N\O)C(C)(C)NCCC(CCNC(C)(C)/C(C)=N/O)CCN*; Glutaryl = O=C(CCCC(=O)[*:2])[*:1]; X2 = NC(=O)COCC(=O)NCCOCCOCCOCCN*
MEASURED_METRIC: tissue uptake dose at 1 h (%ID)
Return type: number; implicit unit %ID.

Answer with the recorded tissue uptake dose at 1 h for the molecule listed here: C/C(=N\O)C(C)(C)NCCC(CCNC(=O)CCCC(=O)NCCCC[C@@H]1NC(=O)CSC[C@@H](C(=O)NCCOCCOCCOCCNC(=O)COCC(N)=O)NC(=O)[C@H](Cc2ccccc2)NC(=O)[C@@H]2CSSC[C@H](NC1=O)C(=O)N[C@@H](CCCNC(=N)N)C(=O)NCC(=O)N[C@@H](CC(=O)O)C(=O)N2)CCNC(C)(C)/C(C)=N/O (stereo partly shown) [Compound 8] ({CH2CO}-K([Glutaryl-X1])CRGDCFC-X2; disulfide 2-6; thioether N-8)
12.6

---

# METHOD_NOTES: Biodistribution in sham-operated rats with and without excess cold compound
# Assay type: in vivo
# CONDITION_NOTES: male, Sprague Dawley, rat, skin, iv, 3 MBq, total radioactivity, 15 days post-op, 1 hour post-injection, +10K-fold excess cold Compound 8, read-out: Activity in Skin, Mean
Numbered stars: 1 amine (or outer) side, 2 acyl side, 3 side chain; on linkers, the order of the positions; unused ones are H or OH. Bridge positions count the residues as written; N and C are the ends. Side chains are listed from the residue outwards. Peptide text beside a SMILES is read from it. * marks the point of attachment. X1 = C/C(=N\O)C(C)(C)NCCC(CCNC(C)(C)/C(C)=N/O)CCN*; Glutaryl = O=C(CCCC(=O)[*:2])[*:1]; X2 = NC(=O)COCC(=O)NCCOCCOCCOCCN*
MEASURED_METRIC: tissue uptake dose at 1 h (%ID)
Return type: number; implicit unit %ID.

Answer with the recorded tissue uptake dose at 1 h for the compound listed here: C/C(=N\O)C(C)(C)NCCC(CCNC(=O)CCCC(=O)NCCCC[C@@H]1NC(=O)CSC[C@@H](C(=O)NCCOCCOCCOCCNC(=O)COCC(N)=O)NC(=O)[C@H](Cc2ccccc2)NC(=O)[C@@H]2CSSC[C@H](NC1=O)C(=O)N[C@@H](CCCNC(=N)N)C(=O)NCC(=O)N[C@@H](CC(=O)O)C(=O)N2)CCNC(C)(C)/C(C)=N/O (stereo partly shown) [Compound 8] ({CH2CO}-K([Glutaryl-X1])CRGDCFC-X2; disulfide 2-6; thioether N-8)
12.7

---

# METHOD_NOTES: Biodistribution in BDL rats with and without excess cold compound
# Type: in vivo
# CONDITION_NOTES: male, Sprague Dawley, rat, lung, iv, total radioactivity, BDL rats, 15 days post-op, 1 hour post-injection, 10K-fold excess cold Compound 8; read-out: Activity in Lung, Mean
Numbered stars: 1 amine (or outer) side, 2 acyl side, 3 side chain; on linkers, the order of the positions; unused ones are H or OH. Bridge positions count the residues as written; N and C are the ends. Side chains are listed from the residue outwards. Peptide text beside a SMILES is read from it. * marks the point of attachment. X1 = C/C(=N\O)C(C)(C)NCCC(CCNC(C)(C)/C(C)=N/O)CCN*; Glutaryl = O=C(CCCC(=O)[*:2])[*:1]; X2 = NC(=O)COCC(=O)NCCOCCOCCOCCN*
MEASURED_METRIC: tissue uptake dose at 1 h (%ID)
Return type: number; implicit unit %ID.

Answer with the recorded tissue uptake dose at 1 h for the compound listed here: C/C(=N\O)C(C)(C)NCCC(CCNC(=O)CCCC(=O)NCCCC[C@@H]1NC(=O)CSC[C@@H](C(=O)NCCOCCOCCOCCNC(=O)COCC(N)=O)NC(=O)[C@H](Cc2ccccc2)NC(=O)[C@@H]2CSSC[C@H](NC1=O)C(=O)N[C@@H](CCCNC(=N)N)C(=O)NCC(=O)N[C@@H](CC(=O)O)C(=O)N2)CCNC(C)(C)/C(C)=N/O (stereo partly shown) [Compound 8] ({CH2CO}-K([Glutaryl-X1])CRGDCFC-X2; disulfide 2-6; thioether N-8)
0.5

---

# METHOD_NOTES: Biodistribution in BDL rats with and without excess cold compound
# Format: in vivo
# CONDITION_NOTES: male, Sprague Dawley, rat, muscle, iv, total radioactivity, BDL rats, 15 days post-op, 1 hour post-injection, no excess; read-out: Activity in Muscle, Mean
Numbered stars: 1 amine (or outer) side, 2 acyl side, 3 side chain; on linkers, the order of the positions; unused ones are H or OH. Bridge positions count the residues as written; N and C are the ends. Side chains are listed from the residue outwards. Peptide text beside a SMILES is read from it. * marks the point of attachment. X1 = C/C(=N\O)C(C)(C)NCCC(CCNC(C)(C)/C(C)=N/O)CCN*; Glutaryl = O=C(CCCC(=O)[*:2])[*:1]; X2 = NC(=O)COCC(=O)NCCOCCOCCOCCN*
MEASURED_METRIC: tissue uptake dose at 1 h (%ID)
Return type: number; implicit unit %ID.

Answer with the recorded tissue uptake dose at 1 h for the compound listed here: C/C(=N\O)C(C)(C)NCCC(CCNC(=O)CCCC(=O)NCCCC[C@@H]1NC(=O)CSC[C@@H](C(=O)NCCOCCOCCOCCNC(=O)COCC(N)=O)NC(=O)[C@H](Cc2ccccc2)NC(=O)[C@@H]2CSSC[C@H](NC1=O)C(=O)N[C@@H](CCCNC(=N)N)C(=O)NCC(=O)N[C@@H](CC(=O)O)C(=O)N2)CCNC(C)(C)/C(C)=N/O (stereo partly shown) [Compound 8] ({CH2CO}-K([Glutaryl-X1])CRGDCFC-X2; disulfide 2-6; thioether N-8)
10.8
